tested on: Liver; assay: Biodistribution in ICR mouse liver at 5 to 10 uCi, iv after 30 mins; assay type: ADME, organism-based; details: in vivo, 0.5 h
Would you kindly list Drug uptake for each of these compounds?
One number for each entry, in % ID/g.

[
  {
    "STRUCTURE_NOTATION": "CN(C)c1ccc(/C=C/c2cnc(OCCO)c([125I])c2)cc1",
    "Drug uptake [% ID/g]": 12.4
  }
]

Respectfully, I request Drug uptake for each entry included below.
1. CNc1ccc(/C=C/c2cnc(OCCO)c([125I])c2)cc1
2. CNc1ccc(/C=C/c2cnc(OCCOCCOCCF)c([125I])c2)cc1

1: 12.6; 2: 11.5

Respectfully, I request Drug uptake for each entry included below.
1. OCCOc1ncc(/C=C/c2ccc(O)cc2)cc1[125I]
2. CN(C)c1ccc(/C=C/c2cnc(OCCOCCOCCF)c([125I])c2)cc1

1: 5.15; 2: 9.54

###

tested on: Brain; assay: Biodistribution in ICR mouse brain at 5 to 10 uCi, iv after 2 hrs; type: ADME, organism-based; conditions: in vivo
Would you kindly list Drug uptake for each of these molecules?
State the value with its unit after it.

[
  {
    "STRUCTURE_NOTATION": "CNc1ccc(/C=C/c2cnc(OCCO)c([125I])c2)cc1",
    "ENDPOINT_VALUE": "0.15 % ID/g"
  },
  {
    "STRUCTURE_NOTATION": "CN(C)c1ccc(/C=C/c2cnc(OCCOCCOCCF)c([125I])c2)cc1",
    "ENDPOINT_VALUE": "0.26 % ID/g"
  },
  {
    "STRUCTURE_NOTATION": "CNc1ccc(/C=C/c2cnc(OCCOCCOCCF)c([125I])c2)cc1",
    "ENDPOINT_VALUE": "0.26 % ID/g"
  },
  {
    "STRUCTURE_NOTATION": "CN(C)c1ccc(/C=C/c2cnc(OCCO)c([125I])c2)cc1",
    "ENDPOINT_VALUE": "0.46 % ID/g"
  }
]

Field: next molecule
State, in one line, measured Drug uptake of OCCOc1ncc(/C=C/c2ccc(O)cc2)cc1[125I] 0.06 % ID/g

###

tested on: Heart; experiment: Biodistribution in ICR mouse heart at 5 to 10 uCi, iv after 30 mins; format: ADME, organism-based; details: in vivo, 0.5 h
Drug uptake of 2 % ID/g or higher: yes. Under 2 % ID/g: no.

[
  {
    "STRUCTURE_NOTATION": "CN(C)c1ccc(/C=C/c2cnc(OCCOCCOCCF)c([125I])c2)cc1",
    "TEST_TARGET": "Heart",
    "LABEL_CLASS": "no"
  },
  {
    "STRUCTURE_NOTATION": "CN(C)c1ccc(/C=C/c2cnc(OCCO)c([125I])c2)cc1",
    "TEST_TARGET": "Heart",
    "LABEL_CLASS": "no"
  },
  {
    "STRUCTURE_NOTATION": "CNc1ccc(/C=C/c2cnc(OCCOCCOCCF)c([125I])c2)cc1",
    "TEST_TARGET": "Heart",
    "LABEL_CLASS": "yes"
  },
  {
    "STRUCTURE_NOTATION": "CNc1ccc(/C=C/c2cnc(OCCO)c([125I])c2)cc1",
    "TEST_TARGET": "Heart",
    "LABEL_CLASS": "no"
  }
]

Could you now consider this next molecule?
Answer whether Drug uptake of OCCOc1ncc(/C=C/c2ccc(O)cc2)cc1[125I] is greater than or equal to 2 % ID/g. no

###

system: Spleen; assay: Biodistribution in ICR mouse spleen at 5 to 10 uCi, iv after 2 mins; format: ADME, organism-based; conditions: in vivo
REPORTED_ENDPOINT: Drug uptake (% ID/g)
Numbers only, in % ID/g.

[
  {
    "STRUCTURE_NOTATION": "CNc1ccc(/C=C/c2cnc(OCCOCCOCCF)c([125I])c2)cc1",
    "ENDPOINT_VALUE": 4.41
  },
  {
    "STRUCTURE_NOTATION": "CN(C)c1ccc(/C=C/c2cnc(OCCO)c([125I])c2)cc1",
    "ENDPOINT_VALUE": 4.4
  }
]

Respectfully, I request Drug uptake for each entry included below.
1. OCCOc1ncc(/C=C/c2ccc(O)cc2)cc1[125I]
2. CNc1ccc(/C=C/c2cnc(OCCO)c([125I])c2)cc1
3. CN(C)c1ccc(/C=C/c2cnc(OCCOCCOCCF)c([125I])c2)cc1

4.2
4.08
4.47
